Here the recorded % Cell Viability is given for each entry.
- System: TZM-bl cell line
- Format: cell-based
- Test settings: human, 1 μM
Please give a number only; it is taken to be in %.

In the examples that follow, each entry is paired with its recorded % Cell Viability.
>  <Molecule>
CN(C)C(=O)N1CCCC(Cc2c(C3CC3)nn(-c3nc4ccccc4[nH]3)c2O)C1 (centres unmarked)

>  <Measurement type>
% Cell Viability

>  <Result number>
98.8

$$$$
>  <Molecule>
O=S(=O)(c1cccnc1)N1CCCC(c2nn(-c3nc4ccccc4[nH]3)c(O)c2CCc2ccc(F)cc2)C1 (centres unmarked)

>  <Measurement type>
% Cell Viability

>  <Result number>
99.8

$$$$
>  <Molecule>
Oc1c(CCC2CCOCC2)c(-c2cccc(F)c2)nn1-c1nc2cccnc2[nH]1

>  <Measurement type>
% Cell Viability

>  <Result number>
98.7

$$$$
>  <Molecule>
Oc1c(CCc2ccc(F)cc2)c(-c2ccc3c(c2)OC(F)(F)O3)nn1-c1nc2ccccc2[nH]1

>  <Measurement type>
% Cell Viability

>  <Result number>
98.2

$$$$
>  <Molecule>
Oc1c(CCc2ccc(F)cc2)c(C2CCN(CC3CCOCC3)CC2)nn1-c1nc2ccccc2[nH]1

>  <Measurement type>
% Cell Viability

>  <Result number>
99.1

$$$$
>  <Molecule>
Cc1nn(-c2nc3ccccc3[nH]2)c(O)c1Cc1ccc(Cl)cc1F

>  <Measurement type>
% Cell Viability

>  <Result number>
100

$$$$
>  <Molecule>
CC(=O)N1CCC(Cc2c(-c3ccc(C(F)(F)F)cc3)nn(-c3nc4ccccc4[nH]3)c2O)CC1

>  <Measurement type>
% Cell Viability

>  <Result number>
71.4

$$$$
>  <Molecule>
CC(C)(C)OC(=O)N1CCCCC1Cc1nn(-c2nc3ccccc3[nH]2)c(O)c1CCc1ccc(F)cc1 (centres unmarked)

>  <Measurement type>
% Cell Viability

>  <Result number>
99.3

$$$$

I'd like to know its % Cell Viability. The molecule in question is Oc1c(CCC2CCN(CC(F)(F)F)CC2)c(-c2ccc(C(F)(F)F)cc2)nn1-c1nc2ccccc2[nH]1
85.2

I'd like to know its % Cell Viability. The molecule in question is Oc1c(CCc2ccc(F)cc2)c(CC2CCN(CC(F)(F)F)CC2)nn1-c1nc2ccccc2[nH]1
100

I'd like to know its % Cell Viability. The molecule in question is O=C(C1CCOC1)N1CCC(c2nn(-c3nc4ccccc4[nH]3)c(O)c2CCc2ccc(F)cc2)CC1 (centres unmarked)
96.0

I'd like to know its % Cell Viability. The molecule in question is Oc1c(CCC2CCOCC2)c(-c2ccc(F)cc2)nn1-c1nc2ccccc2[nH]1
90

I'd like to know its % Cell Viability. The molecule in question is O=C(c1nn(-c2nc3ccccc3[nH]2)c(O)c1CCc1ccc(F)cc1)N1CCCCC1
100

I'd like to know its % Cell Viability. The molecule in question is Oc1c(CCC2CCN(c3ncc(F)cn3)CC2)c(C2CC2)nn1-c1nc2cc(Cl)ccc2[nH]1
100

----------
- System: TZM-bl cell line
- Assay type: cell-based
- Test settings: human, 1 μM
Measurement type: % Cell Viability (%)
Please give a number only; it is taken to be in %.

>  <Smiles>
Oc1c(CCc2ccc(F)cc2)c(C2CCOCC2)nn1-c1cc(C(F)(F)F)n[nH]1

>  <Result number>
100

$$$$

Moving on to another molecule below.
I'd like to know its % Cell Viability. The molecule in question is CC(C)(C)OC(=O)N1CCC(CCc2c(-c3ccc(S(C)(=O)=O)cc3)nn(-c3nc4ccccc4[nH]3)c2O)CC1
70.5
